# protocol_description: Ex vivo biodistribution of [18F]14 and [18F]15
# Type: in vivo, Rj:NMRI-Foxn1^nu/nu mice
# recorded_conditions: mouse, occipital bone, iv, 0.2 nmol, 60 min post injection, i.v., baseline; read-out: bone, occipital

| compound | tissue uptake at 1 h [%ID/g] |
| --- | --- |
| C[C@@H](O)[C@@H]1NC(=O)[C@H](CCCCN)NC(=O)[C@@H](Cc2c[nH]c3ccccc23)NC(=O)[C@H](Cc2ccc(O)cc2)NC(=O)[C@@H](NC(=O)[C@@H](Cc2ccccc2)NC(=O)CCOCCOCCOCCOCCON=Cc2ccc(C(=O)NCCOCCOCCOCCNC(=O)OC3CCCc4cnnc(-c5ccc(CC(=O)NCC[N+](C)(C)C[B-](F)(F)F)cc5)c4CC3)cc2)CSSC[C@@H](C(=O)N[C@H](CO)[C@@H](C)O)NC1=O (stereo partly shown) [[^18F]15] | 0.9 |

----------
Let's look at some compounds and their measured tissue uptake at 1 h.
# protocol_description: Ex vivo biodistribution of [18F]14 and [18F]15
# Type: in vivo, Rj:NMRI-Foxn1^nu/nu mice
# recorded_conditions: mouse, large intestine with contents, iv, 0.2 nmol, 60 min post injection, i.v., baseline; read-out: L. I. (+cont.), large intestine

| compound | tissue uptake at 1 h [%ID/g] |
| --- | --- |
| C[C@@H](O)[C@@H]1NC(=O)[C@H](CCCCN)NC(=O)[C@@H](Cc2c[nH]c3ccccc23)NC(=O)[C@H](Cc2ccc(O)cc2)NC(=O)[C@@H](NC(=O)[C@@H](Cc2ccccc2)NC(=O)CCOCCOCCOCCOCCON=Cc2ccc(CNC(=O)OC3CCCc4cnnc(-c5ccc(CC(=O)NCC[N+](C)(C)C[B-](F)(F)F)cc5)c4CC3)cc2)CSSC[C@@H](C(=O)N[C@H](CO)[C@@H](C)O)NC1=O (some centres unmarked) [[^18F]14] | 1.1 |
| C[C@@H](O)[C@@H]1NC(=O)[C@H](CCCCN)NC(=O)[C@@H](Cc2c[nH]c3ccccc23)NC(=O)[C@H](Cc2ccc(O)cc2)NC(=O)[C@@H](NC(=O)[C@@H](Cc2ccccc2)NC(=O)CCOCCOCCOCCOCCON=Cc2ccc(C(=O)NCCOCCOCCOCCNC(=O)OC3CCCc4cnnc(-c5ccc(CC(=O)NCC[N+](C)(C)C[B-](F)(F)F)cc5)c4CC3)cc2)CSSC[C@@H](C(=O)N[C@H](CO)[C@@H](C)O)NC1=O (some centres unmarked) [[^18F]15] | 1 |

----------
# protocol_description: Ex vivo biodistribution of [18F]14 and [18F]15
# Type: in vivo, Rj:NMRI-Foxn1^nu/nu mice
# recorded_conditions: mouse, stomach with contents, iv, 0.2 nmol, 60 min post injection, i.v., blocked with octreotide; read-out: stomach (+cont.)
measured_quantity: tissue uptake at 1 h (%ID/g)

| molecule | measured_quantity | readout_units | reported_value |
| --- | --- | --- | --- |
| C[C@@H](O)[C@@H]1NC(=O)[C@H](CCCCN)NC(=O)[C@@H](Cc2c[nH]c3ccccc23)NC(=O)[C@H](Cc2ccc(O)cc2)NC(=O)[C@@H](NC(=O)[C@@H](Cc2ccccc2)NC(=O)CCOCCOCCOCCOCCON=Cc2ccc(C(=O)NCCOCCOCCOCCNC(=O)OC3CCCc4cnnc(-c5ccc(CC(=O)NCC[N+](C)(C)C[B-](F)(F)F)cc5)c4CC3)cc2)CSSC[C@@H](C(=O)N[C@H](CO)[C@@H](C)O)NC1=O (some centres unmarked) [[^18F]15] | tissue uptake at 1 h | %ID/g | 0.6 |
| C[C@@H](O)[C@@H]1NC(=O)[C@H](CCCCN)NC(=O)[C@@H](Cc2c[nH]c3ccccc23)NC(=O)[C@H](Cc2ccc(O)cc2)NC(=O)[C@@H](NC(=O)[C@@H](Cc2ccccc2)NC(=O)CCOCCOCCOCCOCCON=Cc2ccc(CNC(=O)OC3CCCc4cnnc(-c5ccc(CC(=O)NCC[N+](C)(C)C[B-](F)(F)F)cc5)c4CC3)cc2)CSSC[C@@H](C(=O)N[C@H](CO)[C@@H](C)O)NC1=O (some centres unmarked) [[^18F]14] | tissue uptake at 1 h | %ID/g | 0.6 |

These entries and their values trace back to paper PMC9305971.
